Property Label: melting point

- Cpd Smiles: "CCCC#Cc1ccc([C@@]2(CC(=O)O)CCCCS2(=O)=O)s1"
  melting point: "171 to 172 °C"
- Cpd Smiles: "CC(C)Oc1ccc(-c2ccc([C@@]3(CC(=O)O)CCCCS3(=O)=O)s2)cc1"
  melting point: "184 to 185 °C"
- Cpd Smiles: "COc1ccc2sc(-c3ccc([C@@]4(CC(=O)O)CCCCS4(=O)=O)s3)cc2c1"
  melting point: "215 to 218 °C"

Here's the next entry for you.
For the compound shown here, COc1ccc2cc(-c3ccc([C@@]4(CC(=O)O)CCCCS4(=O)=O)s3)sc2c1 , give the reported melting point.
232 to 235 °C

Reference source: patent US20040266826A1
